# Test system: A2780
# assayProcedure: Cytotoxicity against human A2780 cells assessed as reduction in cell viability at 5 to 100 uM incubated for 24 hrs by MTT assay
# Type: functional, cell-based
# particulars: A2780, 24 h
pIC50: −log10 of the molar value.
propertyMeasured: pIC50

>  <smilesRepr>
COc1cc([C@@H]2c3c(cc(OC)c(O)c3OC)C[C@H](CO)[C@H]2CO[C@@H]2O[C@@H](C)[C@H](O)[C@@H](O)[C@H]2O)cc(OC)c1O

>  <quantitativeReadout>
4.45

$$$$
